# MEASUREMENT DESCRIPTION: Cytotoxicity against human HuH7 cells assessed as inhibition of cell proliferation by sulforhodamine B assay
# Assay type: functional, cell-based
# ASSAY SETUP: Huh-7
Assign classes using reported IC50 values and the ranges bottom range (below 0.8 µM), center range (0.8 µM to below 2 µM), top range (2 µM or more), please.

* C#CC(=O)N1C(CC(C)CC(C)(C)C)SC[C@@H]1C(=O)OCC (mixture of isomers) | center range
* C#CC(=O)N1C(c2ccccc2F)SC[C@@H]1C(=O)OCC (mixture of isomers) | center range
* C#CC(=O)N1C(c2ccccc2)SC[C@@H]1C(=O)OCC (stereo partly drawn) | top range
* C#CC(=O)N1C(c2cccc(F)c2)SC[C@@H]1C(=O)OCC (mixture of isomers) | center range
* C#CC(=O)N1C(CCCCC)SC[C@@H]1C(=O)OCC (mixture of isomers) | center range
* C#CC(=O)N1C(CCCC)SC[C@@H]1C(=O)OCC (mixture of isomers) | bottom range
* CC[C@@]1(O)C(=O)OCc2c1cc1n(c2=O)Cc2cc3ccccc3nc2-1 | bottom range
* C#CC(=O)N1C(c2ccc(C#N)cc2)SC[C@@H]1C(=O)OCC (mixture of isomers) | top range
* C#CC(=O)N1C(C(C)CCC)SC[C@@H]1C(=O)OCC (mixture of isomers) | bottom range
* C#CC(=O)N1C(c2ccc(OC)cc2)SC[C@@H]1C(=O)OCC (mixture of isomers) | center range
* C#CC(=O)N1C(C(CC)CCCC)SC[C@@H]1C(=O)OCC (mixture of isomers) | center range
* C#CC(=O)N1C(c2ccc(F)cc2)SC[C@@H]1C(=O)OCC (mixture of isomers) | bottom range

Provenance of the data: ChEMBL document CHEMBL3616386
